# protocol: Approximate solubility in various solvents at ambient temperature (aliquot addition, visual observation)
# Format: physicochemical
# conditions: thermodynamic from solid; Water, ambient temperature; read-out: Solubility
result type: solubility

Reported solubility, compound CN[C@H](C)Cc1ccc2c(c1)OCO2.Cl [R-MDMA HCl Form I] : ____
> 110 mg/mL

###

# protocol: Approximate solubility in various solvents at ambient temperature (aliquot addition, visual observation)
# Format: physicochemical
# conditions: organic solvent or mixture, thermodynamic from solid; Acetone, ambient temperature; read-out: Solubility
# Procedure: Aliquots of various solvents were added to measured amounts of a Form I with agitation (typically sonication) at ambient temperature until complete dissolution was achieved, as judged by visual observation. If dissolution occurred after the addition of the first aliquot, values are reported as “>”.
result type: solubility

Returns the measured solubility for the input compound. Input: CN[C@H](C)Cc1ccc2c(c1)OCO2.Cl [R-MDMA HCl Form I]
< 1000 µg/mL

###

# protocol: Approximate solubility in various solvents at ambient temperature (aliquot addition, visual observation)
# Type: physicochemical
# conditions: organic solvent or mixture, thermodynamic from solid; DCM, ambient temperature; read-out: Solubility
# Description: Aliquots of various solvents were added to measured amounts of a Form I with agitation (typically sonication) at ambient temperature until complete dissolution was achieved, as judged by visual observation. If dissolution occurred after the addition of the first aliquot, values are reported as “>”.
result type: solubility
Write the quantity with the unit trailing the number.

Given the entry CN[C@H](C)Cc1ccc2c(c1)OCO2.Cl [R-MDMA HCl Form I] , report its measured solubility.
16 mg/mL

###

# protocol: Approximate solubility in various solvents at ambient temperature (aliquot addition, visual observation)
# Assay type: physicochemical
# conditions: organic solvent or mixture, thermodynamic from solid; 90:10 Acetone/Water, ambient temperature; read-out: Solubility
# Protocol: Aliquots of various solvents were added to measured amounts of a Form I with agitation (typically sonication) at ambient temperature until complete dissolution was achieved, as judged by visual observation. If dissolution occurred after the addition of the first aliquot, values are reported as “>”.
result type: solubility

Look at this compound and give its reported solubility. CN[C@H](C)Cc1ccc2c(c1)OCO2.Cl [R-MDMA HCl Form I]
> 76 mg/mL

###

# protocol: Approximate solubility in various solvents at ambient temperature (aliquot addition, visual observation)
# Type: physicochemical
# conditions: organic solvent or mixture, thermodynamic from solid; EtOAc, ambient temperature; read-out: Solubility
result type: solubility

State the recorded solubility for this entry: CN[C@H](C)Cc1ccc2c(c1)OCO2.Cl [R-MDMA HCl Form I]
< 1000 µg/mL

###

# protocol: Approximate solubility in various solvents at ambient temperature (aliquot addition, visual observation)
# Assay type: physicochemical
# conditions: organic solvent or mixture, thermodynamic from solid; p-dioxane, ambient temperature; read-out: Solubility
result type: solubility

Fill in the blank: the reported solubility of CN[C@H](C)Cc1ccc2c(c1)OCO2.Cl [R-MDMA HCl Form I] is ____.
< 1000 µg/mL

###

# protocol: Approximate solubility in various solvents at ambient temperature (aliquot addition, visual observation)
# Type: physicochemical
# conditions: organic solvent or mixture, thermodynamic from solid; 1-BuOH, ambient temperature; read-out: Solubility
result type: solubility (µg/mL)
Could you give me the number in µg/mL? Just the number is fine.

Looking for the measured solubility of CN[C@H](C)Cc1ccc2c(c1)OCO2.Cl [R-MDMA HCl Form I] , can you help?
3000
